Biological target: p38a (MAPK14, IPI00221141) (Homo sapiens)
Sequence (Q16539 1-360 isoform Q16539-2): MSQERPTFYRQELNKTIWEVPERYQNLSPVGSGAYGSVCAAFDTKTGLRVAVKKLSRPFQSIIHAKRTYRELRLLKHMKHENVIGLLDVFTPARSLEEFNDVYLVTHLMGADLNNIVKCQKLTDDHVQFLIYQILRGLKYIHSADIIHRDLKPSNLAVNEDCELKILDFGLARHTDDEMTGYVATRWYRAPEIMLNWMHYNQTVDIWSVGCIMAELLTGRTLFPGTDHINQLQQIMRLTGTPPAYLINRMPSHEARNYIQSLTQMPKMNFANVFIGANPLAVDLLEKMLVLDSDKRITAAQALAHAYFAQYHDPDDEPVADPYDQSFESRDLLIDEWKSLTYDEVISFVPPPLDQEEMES
Experiment: binding to AX14596 beads (HeLa lysate, SILAC MS)
pKi: −log10 of the molar value.

molecule smiles: COc1cc2ncnc(Nc3ccc(F)c(Cl)c3)c2cc1OCCCN
pKi: 3.78

----------
Target: GAK (Homo sapiens, UniProt O14976)
Sequence (O14976 whole entry): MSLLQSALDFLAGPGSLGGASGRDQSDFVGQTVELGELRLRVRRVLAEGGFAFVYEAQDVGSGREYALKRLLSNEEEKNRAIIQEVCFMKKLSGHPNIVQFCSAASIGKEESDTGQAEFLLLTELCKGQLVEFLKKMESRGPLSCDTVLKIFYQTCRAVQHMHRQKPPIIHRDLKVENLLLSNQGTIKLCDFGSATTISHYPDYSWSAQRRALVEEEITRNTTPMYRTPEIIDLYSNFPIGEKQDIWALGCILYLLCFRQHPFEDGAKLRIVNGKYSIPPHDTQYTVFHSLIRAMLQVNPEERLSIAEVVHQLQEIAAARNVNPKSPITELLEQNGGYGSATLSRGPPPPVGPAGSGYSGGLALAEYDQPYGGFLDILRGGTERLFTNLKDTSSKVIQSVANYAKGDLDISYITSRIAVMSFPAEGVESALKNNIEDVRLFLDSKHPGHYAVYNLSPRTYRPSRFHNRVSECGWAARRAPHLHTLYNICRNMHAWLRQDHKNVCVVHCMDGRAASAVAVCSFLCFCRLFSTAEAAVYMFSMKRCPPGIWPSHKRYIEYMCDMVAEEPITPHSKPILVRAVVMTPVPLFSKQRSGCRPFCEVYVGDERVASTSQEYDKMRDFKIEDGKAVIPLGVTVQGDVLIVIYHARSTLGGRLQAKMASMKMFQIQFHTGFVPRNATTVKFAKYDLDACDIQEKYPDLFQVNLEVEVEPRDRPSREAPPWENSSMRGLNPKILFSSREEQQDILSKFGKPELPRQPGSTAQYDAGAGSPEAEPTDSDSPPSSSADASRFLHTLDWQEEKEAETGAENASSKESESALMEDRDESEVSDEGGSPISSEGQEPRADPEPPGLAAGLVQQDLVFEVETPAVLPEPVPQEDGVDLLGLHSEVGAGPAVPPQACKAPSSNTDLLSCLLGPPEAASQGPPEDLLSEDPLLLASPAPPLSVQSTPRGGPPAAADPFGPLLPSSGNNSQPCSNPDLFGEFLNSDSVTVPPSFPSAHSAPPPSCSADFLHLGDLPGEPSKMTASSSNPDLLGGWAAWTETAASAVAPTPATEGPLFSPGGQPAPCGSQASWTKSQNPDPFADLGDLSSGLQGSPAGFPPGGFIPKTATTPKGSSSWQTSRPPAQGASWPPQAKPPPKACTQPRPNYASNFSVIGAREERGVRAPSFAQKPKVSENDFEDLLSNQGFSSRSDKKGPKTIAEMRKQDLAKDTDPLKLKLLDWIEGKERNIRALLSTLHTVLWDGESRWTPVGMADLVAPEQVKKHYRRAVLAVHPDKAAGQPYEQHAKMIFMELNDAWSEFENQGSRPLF
Assay: binding to immobilized V16742 (IVA1/IVA2, HeLa lysate, MS)
Conditions: EXPERIMENT 2, read-out: Kd

compound: CC(C)n1c(=O)ccc2cnc(Nc3ccc(OCCN)cc3)nc21 [compound 16742]
Kd, µM: 26.7

----------
Biological target: LIMS1 (IPI00788612)
Experiment: binding to VI16742 beads (HeLa lysate, SILAC MS)
Conditions: immobilized VI16742
pKi: −log10 of the molar value.

molecule smiles: CC(C)n1c(=O)ccc2cnc(Nc3ccc(OCCN)cc3)nc21
measured target: LIMS1 (IPI00788612)
pKi: 3.84
